# melting point values compiled below
PROPERTY: melting point (°C)

{"columns": ["MOLECULE", "PROPERTY", "READING UNIT", "NUMERIC VALUE"],
 "data": [
  ["COc1cccc(O)c1O", "melting point", "°C", 42.8],
  ["NC(=O)C(Br)(Br)Br", "melting point", "°C", 122],
  ["NS(=O)(=O)c1ccc(S(=O)(=O)CCO)cc1", "melting point", "°C", 165],
  ["CCCCCCCCc1ccccc1", "melting point", "°C", -36],
  ["COc1ccc(C=O)c(C(=O)O)c1OC", "melting point", "°C", 150],
  ["CC1CCCC(C)(C)C1=O (centres undefined)", "melting point", "°C", -31.8],
  ["c1ccc2[nH]c(-c3cscn3)nc2c1", "melting point", "°C", 300],
  ["CNc1ccccc1C(=O)OC", "melting point", "°C", 19],
  ["CC(=O)NC(C)=O", "melting point", "°C", 79],
  ["COc1cc(OC)cc(O[C@H]2O[C@H](CO)[C@@H](O)[C@H](O)[C@H]2O)c1", "melting point", "°C", 170],
  ["CCc1ccc(C(C)=O)cc1", "melting point", "°C", -20.6],
  ["O=C1C[C@@H]2OCC=C3CN4CC[C@]56c7ccccc7N1[C@H]5[C@H]2[C@H]3C[C@H]46", "melting point", "°C", 287],
  ["O=C1C=CC(=Nc2ccc(O)cc2)C=C1", "melting point", "°C", 160],
  ["CCCCC(CC)COP(=O)(O)OCC(CC)CCCC (centres undefined)", "melting point", "°C", -50],
  ["NC(=O)NO", "melting point", "°C", 141],
  ["CCOC(=O)n1ccn(C)c1=S", "melting point", "°C", 124],
  ["O=c1[nH]c2c(c(=O)n1C1CCCCC1)CCC2", "melting point", "°C", 316],
  ["O=C(O)/C=C/CCl", "melting point", "°C", 83],
  ["CC(=O)c1c(F)c(F)c(F)c(F)c1F", "melting point", "°C", 130],
  ["CC(C)Nc1ccccc1", "melting point", "°C", -10],
  ["COc1ccc([N+](=O)[O-])c(OC)c1", "melting point", "°C", 76.5],
  ["CSc1nc(NC(C)C)nc(NC(C)C)n1", "melting point", "°C", 119],
  ["O=C(c1ccccc1)c1cccc(C(F)(F)F)c1", "melting point", "°C", 52.5],
  ["CC(C)(C)C(=O)NNCc1ccccc1", "melting point", "°C", 68.5],
  ["C[Si](C)(C)[Si](C)(C)C", "melting point", "°C", 13.5],
  ["CCC1=C(C[C@@H]2NCCc3cc(OC)c(OC)cc32)C[C@H]2c3cc(OC)c(OC)cc3CCN2C1", "melting point", "°C", 95],
  ["CC/C=C\\C/C=C\\C/C=C\\CCCCCCCC(=O)O", "melting point", "°C", -16.5],
  ["C[C@@H]1O[C@@H](O[C@H]2CC[C@]3(C=O)[C@H]4CC[C@]5(C)[C@@H](c6ccc(=O)oc6)CC[C@]5(O)[C@@H]4CC[C@]3(O)C2)[C@H](O)[C@H](O)[C@H]1O[C@@H]1O[C@H](CO)[C@@H](O)[C@H](O)[C@H]1O", "melting point", "°C", 284],
  ["N#Cc1cc([N+](=O)[O-])c(Cl)c([N+](=O)[O-])c1", "melting point", "°C", 141],
  ["Brc1cc(Br)cc(Br)c1", "melting point", "°C", 123],
  ["SC(c1ccccc1)(c1ccccc1)c1ccccc1", "melting point", "°C", 105],
  ["COC(=O)c1ccc([N+](=O)[O-])cc1", "melting point", "°C", 95],
  ["Cc1ccc2nc3sc(=O)sc3nc2c1", "melting point", "°C", 170],
  ["S=P(N1CC1)(N1CC1)N1CC1", "melting point", "°C", 51.5],
  ["Oc1cc(Cl)cc(Cl)c1Cl", "melting point", "°C", 62],
  ["C[C@@H](CN1CC(=O)NC(=O)C1)N1CC(=O)NC(=O)C1", "melting point", "°C", 238],
  ["NC(=O)c1ccccc1OCC(=O)O", "melting point", "°C", 221],
  ["COc1cc(CCO)ccc1O", "melting point", "°C", 41],
  ["CC(=O)c1ccc(C(C)=O)cc1", "melting point", "°C", 112],
  ["Oc1cccc2[nH]ccc12", "melting point", "°C", 100],
  ["C1CCSCC1", "melting point", "°C", 19],
  ["BrCCCCBr", "melting point", "°C", -16.5],
  ["CCCOC/C(=N\\c1ccc(Cl)cc1C(F)(F)F)n1ccnc1", "melting point", "°C", 63.5],
  ["O=C(O)/C=C/CCCCCCCCC(=O)O", "melting point", "°C", 166],
  ["Cc1cc(C)cc(O)c1", "melting point", "°C", 63.6],
  ["O=[N+]([O-])c1cccc2c(Cl)cccc12", "melting point", "°C", 111],
  ["CCCCC(C(N)=O)n1nc2ccccc2n1 (centres undefined)", "melting point", "°C", 102],
  ["CC(C)(C#N)/N=N/C(C)(C)C#N", "melting point", "°C", 102],
  ["CC[C@@H](N)CO", "melting point", "°C", -2],
  ["Cc1ccc2[nH]c(C)c(C)c2c1", "melting point", "°C", 122],
  ["c1ccc2sc(SN3CCOCC3)nc2c1", "melting point", "°C", 85],
  ["N#CO", "melting point", "°C", -86],
  ["CCCCCCCC(N)=O", "melting point", "°C", 108],
  ["C=Cc1ccc(C(C)C)cc1", "melting point", "°C", -44.7],
  ["C=C(C)C#N", "melting point", "°C", -35.8],
  ["CN1CCN(C2=Nc3ccccc3Cc3ccccc32)CC1", "melting point", "°C", 137],
  ["COc1ccc(N=[N+]([O-])c2ccc(OC)cc2)cc1", "melting point", "°C", 127],
  ["CCn1c(C)nc2ccccc21", "melting point", "°C", 51],
  ["CCCCCCCCCCCC(=O)O", "melting point", "°C", 43.2]
]}

Cited source: the OPERA property sets (Mansouri et al. 2018)
